- ASSAYED_TARGET: T1, PUF4 RNA-binding domain (Saccharomyces cerevisiae, UniProt P25339 537-888)
- T1 sequence: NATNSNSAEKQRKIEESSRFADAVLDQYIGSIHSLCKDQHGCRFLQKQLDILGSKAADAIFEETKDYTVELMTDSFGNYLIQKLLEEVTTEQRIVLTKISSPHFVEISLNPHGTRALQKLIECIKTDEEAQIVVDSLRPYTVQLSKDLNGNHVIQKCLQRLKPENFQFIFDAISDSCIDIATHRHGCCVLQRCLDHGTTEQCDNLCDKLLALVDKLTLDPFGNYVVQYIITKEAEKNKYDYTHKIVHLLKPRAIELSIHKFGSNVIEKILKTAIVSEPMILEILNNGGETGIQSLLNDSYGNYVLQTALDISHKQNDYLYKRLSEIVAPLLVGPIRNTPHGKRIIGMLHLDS
- ASSAY_EXPLANATION: Mg; RNA-MaP; 20 mM Na-HEPES pH 7.4, 30 mM KOAc, 0.75 mM MgCl2, 0.1% Tween-20, 5% glycerol, 0.1 mg/mL BSA, 2 mM DTT; 25 C; 0.0125-409.6 nM protein
- TEST_PARAMETERS: tags: N-His6-TEV cleaved; C-SNAP kept, Cy3B-labelled; label: tethered on chip by stalled RNA polymerase
EXPERIMENTAL_READOUT: pKd
Friendly reminder that pKd comes from taking -log10 of the concentration in mol/L.

Data request: I would be grateful if you could share the reported pKd for UCUCUUGUACACUAUUAUCUCUCUU (ssRNA) [Id_ii_S1_P4E.4_K4.3_C4.2_[C-2G]_H4.3_A4.1_F4.1_T4.2_[G10T]_[T11C]] .
Data returned: 9.17

Data request: I would be grateful if you could share the reported pKd for UCUCUUUGUAUUUGCCUCUCUU (ssRNA) [Ic_S1_P5E.1_K5.1_C5.1_H5.1_A5.1_[A7T]_F5.1_[T8G]_[T9C]_[A10C]_T5.1] .
Data returned: 6.25

Data request: I would be grateful if you could share the reported pKd for UCUCUUUGUAGCCUAUUCUCUU (ssRNA) [Ic_S1_P5E.1_K5.1_C5.1_H5.1_A5.1_[T5G]_[T6C]_[A7C]_F5.1_[T9A]_[A10T]_T5.1] .
Data returned: 7.77

Data request: I would be grateful if you could share the reported pKd for UCUCUUCUUCUCUGUAUAUAUAUCUCUU (ssRNA) [Ie_S1_P3E.2_K3.1_C3.2_H3.1_[+1CTCT]_A3.1_F3.1_T3.2] .
Data returned: 8.38

The reported numbers originate from paper PMC9352680.
